Tested on: HepG2
Test: cell viability relative to DMSO; higher = less toxic
Conditions: 72 h; 1 nM
quantity name: cell viability (%)
Note: unit % is implicit; provide only the numeric part.

Sample records with cell viability:
compound="N=C(N)NC(=O)c1cnccn1 [pyrazinoylguanidine]" subject_of_test=HepG2 measured_result=104
compound="CCC(=O)O[C@@H]1CC(=O)O[C@H](C)C/C=C/C=C/[C@H](O)[C@H](C)C[C@H](CC=O)[C@H](O[C@@H]2O[C@H](C)[C@@H](O[C@H]3C[C@@](C)(O)[C@@H](OC(=O)CC)[C@H](C)O3)[C@H](N(C)C)[C@H]2O)[C@H]1OC [midecamycin]" subject_of_test=HepG2 measured_result=103

API: the following record is the query input.
Qu. // returns reported cell viability for input Nc1ncn([C@@H]2O[C@H](CO)[C@@H](O)[C@H]2O)c(=O)n1 [azacitidine]
Ans. 97.9
